Reference source for all entries: patent US11304929B2

- MEASUREMENT_TARGET: PHGDH (Homo sapiens (Human))
- Sequence (O43175 2-533 limits assumed): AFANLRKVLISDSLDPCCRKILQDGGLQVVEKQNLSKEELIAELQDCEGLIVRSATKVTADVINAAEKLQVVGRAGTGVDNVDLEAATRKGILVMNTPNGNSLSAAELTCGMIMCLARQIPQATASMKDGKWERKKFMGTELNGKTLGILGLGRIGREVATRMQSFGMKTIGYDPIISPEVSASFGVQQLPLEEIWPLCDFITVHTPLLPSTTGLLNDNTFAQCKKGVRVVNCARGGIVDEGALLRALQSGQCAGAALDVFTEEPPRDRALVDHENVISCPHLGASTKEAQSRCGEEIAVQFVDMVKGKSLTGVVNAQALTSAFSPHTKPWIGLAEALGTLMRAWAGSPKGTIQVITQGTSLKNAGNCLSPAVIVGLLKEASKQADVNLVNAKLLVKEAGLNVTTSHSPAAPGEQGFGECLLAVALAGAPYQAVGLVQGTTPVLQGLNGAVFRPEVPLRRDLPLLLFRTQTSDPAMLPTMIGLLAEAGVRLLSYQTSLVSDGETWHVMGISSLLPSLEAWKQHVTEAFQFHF
- ASSAY_TEXT: 3-Phosphoglycerate Dehydrogenase (PHGDH) Fluorescence Intensity Assay, run at two NAD/3-PG ratios: PHGDH_HIGH_NAD/3-PG (250 μM NAD/500 μM 3-PG) and PHGDH_500_NAD/3-PG (500 μM NAD/500 μM 3-PG)
- Assay type: biochemical
- TEST_PARAMETERS: 250 μM NAD/500 μM 3-PG; read-out: IC50 (PHGDH_HIGH_NAD/3-PG)
The entries below come with measured IC50 values attached.
Reply with just the number (in nM).

COMPOUND | MEASUREMENT_TARGET | ASSAY_METRIC | UNITS_SYMBOL | REPORTED
Cc1cc2c(cc(C(=O)N[C@H](CO)c3ccc([S@@+]([O-])CC(=O)O)cc3)n2C)c(Cl)c1Cl [Example 12-001] | PHGDH (Homo sapiens (Human)) | IC50 | nM | 7
C[C@@H](NC(=O)c1cc(-c2ccc(F)cc2)nn1C)c1ccc(S(=O)(=O)C2(C(=O)O)CCOCC2)cc1 [Example 08-003] | PHGDH (Homo sapiens (Human)) | IC50 | nM | 139
COC(=O)C1(S(=O)(=O)c2ccc([C@@H](C)NC(=O)c3cc4c(Cl)cc(C)cc4n3C)cc2)CCOCC1 [Example 05-010] | PHGDH (Homo sapiens (Human)) | IC50 | nM | 11200

Query (compound): Cc1cc(Cl)c2cc(C(=O)N[C@H](C)c3ccc(S(=O)(=O)CC(=O)OCC4COC4)cc3)n(C)c2c1 [Example 09-017] ; field requested: IC50
177

Fill in: IC50 of COC(=O)C1(S(=O)(=O)c2ccc([C@@H](C)NC(=O)c3cc(-c4ccc(F)cc4)nn3C)cc2)CCOCC1 [Example 06-001] is ___
7700

Which IC50 reading was recorded for the compound Cc1cc2c(cc(C(=O)N[C@H](C)c3ccc(S(=O)(=O)CC(=O)OC(C)C)cc3)n2C)c(Cl)c1F [Example 01-033] ?
36500

Tell me the measured IC50 of COC(=O)C[S@+]([O-])c1ccc([C@@H](CO)NC(=O)c2cc3c(Cl)cc(C)cc3n2C)cc1 [Example 11-008] , please.
120

Field request: IC50 | item: Cc1cc(Cl)c2cc(C(=O)N[C@H](C)c3ccc(S(=O)(=O)C(C)(C)C(=O)O)cc3)n(C)c2c1 [Example 07-005]
12

Give the measured IC50 of Cc1nc2c(cc(C(=O)N[C@H](C)c3ccc(S(=O)(=O)CC(=O)O)cc3)n2C)c(Cl)c1Cl [Example 03-010] .
170

Report IC50 for Cc1cc2c(cc(C(=O)N[C@H](CO)c3ccc([S@+]([O-])CC(=O)OC(C)C)cc3)n2C)c(Cl)c1Cl [Example 13-001] please.
204

# input compound: Cc1cc(Cl)c2cc(C(=O)N[C@H](C)c3ccc(S(=O)(=O)C(C)C(=O)OC(C)C)cc3)n(C)c2c1 (some centres unmarked) [Example 05-004] ; wanted: its IC50
11800

Name the recorded IC50 for CCCC(C(=O)O)S(=O)(=O)c1ccc([C@@H](C)NC(=O)c2cc3c(Cl)cc(C)cc3n2C)cc1 (some centres unmarked) [Example 07-012] .
6

Consider the compound shown here: Cn1nc(-c2ccc(F)cc2)cc1C(=O)N[C@H](CO)c1ccc(S(=O)(=O)CC(=O)O)cc1 [Example 04-004] What is its recorded IC50?
174

Which measured IC50 value corresponds to COC(=O)CS(=O)(=O)c1ccc([C@@H](C)NC(=O)c2cc(-c3ccc(F)cc3)nn2C)cc1 [Example 02-001] ?
1260

Please look up its IC50: Cc1cc(Cl)c2cc(C(=O)N[C@H](C)c3ccc(S(=O)(=O)CC(=O)NO)cc3)n(C)c2c1 [Example 14-020]
172

Which IC50 reading was recorded for the compound C[C@@H](NC(=O)c1cc(-c2ccccc2)nn1C)c1ccc(S(=O)(=O)CC(=O)O)cc1 [Example 04-001] ?
145

Can you share its IC50? I mean this compound: Cc1cc2c(cc(C(=O)N[C@H](C)c3ccc(S(=O)(=O)C(C)(C)C(=O)O)cc3)n2C)c(Cl)c1Cl [Example 07-015]
5
